Value source: patent US8008547B2

Experiment: Standard protocol for determination of kcat and KM (continuous spectrophotometric assay, Acetyl CoA hydrolysis at 235 nm)
Assay type: biochemical
Settings: purified protein; about 23° C.; pH 6.8; 0.2 mM acetyl CoA; glyphosate 0.125 to 10 mM
We use 1000 µM as the dividing line for Km: on or above the line is true (1), below is false (0).

INSERT INTO measurements (molecule, qualitative_label) VALUES
  ('SEQ ID NO: 378: GAT polypeptide (protein, 4B_7E8, GAT polypeptide) MIEVKPINAEDTYEIRHRILRPNQPLEACMYETDLLGGTFHLGGYYRGKLISIASFHQAEHSELEGQKQYQLRGMATLEGYREQKAGSTLIRHAEELLRKKGADLLWCNARTSVSGYYKKLGFSEQGEVYDIPPIGPHILMYKKLT', 'true (1)'),
  ('SEQ ID NO: 514: GAT polypeptide (protein, GAT2_21F1, GAT polypeptide) MIEVKPINAEDTYEIRHRILRPNQPLEACMYETDLLGGTFHLGGYYRGKLISIASFHQAEHSELEGQKQYQLRGMATLEGYREQKAGSTLIRHAEELLRKKGADLLWCNARTSVSGYYKKLGFSEQGGVYDIPPIGPHILMYKKLT', 'true (1)'),
  ('SEQ ID NO: 350: GAT polypeptide (protein, 23H11, GAT polypeptide) MIEVKPINAEDTYEIRHRILRPNQPLEACMYETDLLGGTFHLGGYYQGKLISIASFHKAEHSELEGQKQYQLRGMATLEGYREQKAGSTLIRHAEELLRKKGADLLWCNARTSASGYYEKLGFSEQGEVYDIPPIGPHILMYKKLA', 'true (1)'),
  ('SEQ ID NO: 440: GAT polypeptide (protein, 0_5B3, GAT polypeptide) MLEVKPINAEDTYELRHRILRPNQPIEACMYETDLLRGAFHLGGFYRGKLISIASFHQAEHSELQGQKQYQLRGMATLEGYRDQKAGSSLIKHAEQLLRKRGADLLWCNARTSASGYYKKLGFSEQGEVFDTPPVGPHILMYKRIT', 'false (0)'),
  ('SEQ ID NO: 288: GAT polypeptide (protein, 12_3F1, GAT polypeptide) MIEVKPINAEDTYEIRHRILRPNQPLEACKYETDLLGGTFHLGGYYRGKLISIASFHQAEHPELEGQKQYQLRGMATLEGYREQKAGSTLIRHAEELLRKKGADLLWCNARTSASGYYKKLGFSEQGGVYDIPPVGPHILMYKKLT', 'false (0)'),
  ('SEQ ID NO: 280: GAT polypeptide (protein, 10_4H7, GAT polypeptide) MIEVKPINAEDTYEIRHRILRPNQPLEACMYETDLLGGTFHLGGYYRGKLVSIASFHQAEHPELEGQKQYQLRGMATLEGYREQKAGSTLIRHAEELLRKKGADLLWCNARTSASGYYKKLGFSEQGEVYDIPPTGPHILMYKKLT', 'true (1)'),
  ('SEQ ID NO: 484: GAT polypeptide (protein, 1_6F12, GAT polypeptide) MIEVKPINAEETYELRHRILRPNQPIEACMYESDLLRGSFHLGGFYRGKLISIASFHQAEHSDLEGQKQYQLRGMATLEGYRDQKAGSTLIKHAEELLRKRGADMLWCNARTSAAGYYKRLGFSEHGEIYETPPVGPHILMYKKIT', 'true (1)'),
  ('SEQ ID NO: 475: GAT polypeptide (protein, 1_2H8, GAT polypeptide) MIEVKPINAEETYELRHKILRPNQPLEACMYETDLLRGAFHLGGFYRGKLISIASFHQADHSELQGQKQYQLRGMATLEGYREQKAGSTLIRHAEQILRKRGADLLWCNARTSAAGYYKKLGFSEHGEIFETPPVGPHILMYKRLT', 'false (0)'),
  ('SEQ ID NO: 468: GAT polypeptide (protein, 1_1H5, GAT polypeptide) MIEVKPINAEDTYEIRHRILRPNQPLEACMYESDLLRGSFHLGGFYRGKLISIASFHQAEHSDLEGQKQYQLRGMATLEGYRDQKAGSSLIRHAEQILRKRGADLLWCNARTTAAGYYKRLGFSEQGEVFDTPPVGPHILMYKKLT', 'true (1)'),
  ('SEQ ID NO: 374: GAT polypeptide (protein, 4B_21C6, GAT polypeptide) MIEVKPINAEDTYEIRHRILRPNQPLEACMYETDLLGGTFHLGGYYRGKLISIASFHQAEHSELEGQKQYQLRGMATLEEYREQKAGSTLIRHAEELLRKKGADLLWCNARISASGYYKKLGFSEQGGVYDIPPIGPHILMYKKLT', 'false (0)'),
  ('SEQ ID NO: 421: GAT polypeptide (protein, 9_13F10, GAT polypeptide) MIEVKPINAEDTYEIRHRILRPNQPLEACKYETDLLRGAFHLGGYYRGKLVSIASFHQAEHSELEGQKQYQLRGMATLEEYREQKAGSTLIRHAEELLRKKGADLLWCNARTSASGYYKKLGFSEQGEVYDIPPTGPHILMYKKLT', 'false (0)'),
  ('SEQ ID NO: 263: GAT polypeptide (protein, 13_10F6, GAT polypeptide) MIEVKPINAEDTYEIRHRILRPNQPLEACKYETDLLRGTFHLGGYYRGKLISIASFHQAEHPELEGQKQYQLRGMATLEGYREQKAGSTLIRHAEELLRKKGADLLWCNARTSASGYYKKLGFSEQGEVYDIPPVGPHILMYKKLT', 'true (1)');
